method summary: Drug level in Wistar Hannover rat CSF at 1 mg/kg, po after 2 hrs by UPLC-MS analysis
Assay type: ADME, organism-based, Cerebrospinal fluid
cond: read-out: Drug uptake
assay readout: concentration at 2 h (nM)
All answers are understood in nM, so give the number only.

# lookup: concentration at 2 h of COCCOc1nc(-c2ccc(Cl)nc2)nc2c1CN(C(=O)c1ncn3ccccc13)CC2 4.2

---

method summary: Bioavailability in orally dosed rat after 2 hrs by UPLC-MS analysis
Assay type: ADME, organism-based
cond: in vivo, route po
assay readout: bioavailability (%)
All answers are understood in %, so give the number only.

# lookup: bioavailability of COCCOc1nc(-c2ccc(Cl)nc2)nc2c1CN(C(=O)c1ncn3ccccc13)CC2 47
